# STUDY SYSTEM: neutral endopeptidase (Rattus norvegicus, UniProt P07861)
# Sequence (P07861 1-750): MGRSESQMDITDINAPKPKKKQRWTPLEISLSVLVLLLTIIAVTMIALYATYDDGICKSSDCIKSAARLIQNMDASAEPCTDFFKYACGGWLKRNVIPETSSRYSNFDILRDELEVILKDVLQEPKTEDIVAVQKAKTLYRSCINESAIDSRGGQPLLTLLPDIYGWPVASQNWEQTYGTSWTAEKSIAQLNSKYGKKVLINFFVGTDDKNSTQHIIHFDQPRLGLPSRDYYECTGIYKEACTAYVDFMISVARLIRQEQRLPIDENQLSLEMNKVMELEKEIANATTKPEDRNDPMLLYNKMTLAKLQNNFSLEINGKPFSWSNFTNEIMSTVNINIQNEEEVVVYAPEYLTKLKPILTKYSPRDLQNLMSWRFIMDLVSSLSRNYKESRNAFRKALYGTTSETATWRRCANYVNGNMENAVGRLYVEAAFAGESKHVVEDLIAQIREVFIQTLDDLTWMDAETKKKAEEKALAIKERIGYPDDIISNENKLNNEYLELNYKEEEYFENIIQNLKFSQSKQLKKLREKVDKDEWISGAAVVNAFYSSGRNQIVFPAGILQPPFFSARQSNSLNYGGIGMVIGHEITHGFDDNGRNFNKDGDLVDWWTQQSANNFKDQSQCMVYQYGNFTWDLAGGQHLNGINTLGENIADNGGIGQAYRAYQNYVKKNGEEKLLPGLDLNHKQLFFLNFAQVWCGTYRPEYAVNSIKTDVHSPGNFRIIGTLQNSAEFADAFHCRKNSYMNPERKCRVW
Where a name gives a salt, the structure may show the parent alone. Square brackets hold non-standard residues; d marks the D form. Peptide text beside a SMILES is read from it. Mpa = O=C(O)CCS
REPORTED METRIC: log10(IC50) (log10 of the value in nM)
Lab note - IC50 converted to log10 from values in nM.

Go through the list and state log10(IC50) for each entry.
1. C[C@H](CS)C(=O)N[C@@H](Cc1ccccc1)C(=O)O
2. O=C(O)C[C@H](Cc1ccccc1)NC(=O)C(CS)Cc1ccccc1 (single isomer, unassigned; isomer b)
3. CC(C)C[C@H](NP(=O)(O)O[C@@H]1O[C@@H](C)[C@H](O)[C@@H](O)[C@H]1O)C(=O)N[C@@H](Cc1c[nH]c2ccccc12)C(=O)O

## Result
1.18
1.72
0.58

Please give log10(IC50) for each item listed below.
1. CCCC(C)C(CS)C(=O)NCC(=O)O (racemic)
2. O=C(CCS)N[C@@H](Cc1ccccc1)C(=O)N[C@@H](Cc1ccccc1)C(=O)O [Example 62] ([Mpa]-Phe-Phe-OH)
3. C[C@H](CS)C(=O)N[C@@H](CC(=O)O)C(=O)O
4. CC(C)C[C@H](NC(=O)C(Cc1ccccc1)CP(C)(=O)O)C(=O)O (stereo partly shown) [Example 74, dilithium salt]

## Result
1: 2.71; 2: 2.87; 3: 1.56; 4: 2.98

# return log10(IC50) for each item in the list
1. CC(C)C[C@H](NC(=O)[C@H](C)CS)C(=O)O
2. CCCC[C@H](NC(=O)C(CS)Cc1ccccc1)C(=O)O (single isomer, unassigned; isomer b)
3. CC(C)C[C@H](NC(=O)[C@H](Cc1ccccc1)N[C@@H](Cc1ccccc1)C(=O)O)C(=O)O
4. CC(C)CC(CS)C(=O)N[C@@H](C)C(=O)O (single isomer, unassigned; isomer a)
5. O=C(CCS)N[C@@H](Cc1ccccc1)C(=O)O
6. C[C@H](CS)C(=O)N[C@@H](CC(N)=O)C(=O)O
7. C[C@H](NC(=O)[C@H](S)Cc1ccccc1)C(=O)N1CCC[C@H]1C(=O)O
8. CC(C)C[C@H](NC(=O)[C@H](Cc1ccccc1)NC(=O)[C@@H]1CCCC[C@H]1CS)C(=O)O (mixture of isomers)

## Result
1: 2.28; 2: 1.30; 3: 2.52; 4: 0.52; 5: 2.58; 6: 2.34; 7: 1.79; 8: 2.99

## Task Query (compound): CC(C)C[C@@H](NC(=O)[C@@H](Cc1ccccc1)NC(=O)[C@@H]1CCCC[C@H]1C(=O)O)C(=O)O (mixture of isomers) ; field requested: log10(IC50)
## Result 3.08

###

Target sequence: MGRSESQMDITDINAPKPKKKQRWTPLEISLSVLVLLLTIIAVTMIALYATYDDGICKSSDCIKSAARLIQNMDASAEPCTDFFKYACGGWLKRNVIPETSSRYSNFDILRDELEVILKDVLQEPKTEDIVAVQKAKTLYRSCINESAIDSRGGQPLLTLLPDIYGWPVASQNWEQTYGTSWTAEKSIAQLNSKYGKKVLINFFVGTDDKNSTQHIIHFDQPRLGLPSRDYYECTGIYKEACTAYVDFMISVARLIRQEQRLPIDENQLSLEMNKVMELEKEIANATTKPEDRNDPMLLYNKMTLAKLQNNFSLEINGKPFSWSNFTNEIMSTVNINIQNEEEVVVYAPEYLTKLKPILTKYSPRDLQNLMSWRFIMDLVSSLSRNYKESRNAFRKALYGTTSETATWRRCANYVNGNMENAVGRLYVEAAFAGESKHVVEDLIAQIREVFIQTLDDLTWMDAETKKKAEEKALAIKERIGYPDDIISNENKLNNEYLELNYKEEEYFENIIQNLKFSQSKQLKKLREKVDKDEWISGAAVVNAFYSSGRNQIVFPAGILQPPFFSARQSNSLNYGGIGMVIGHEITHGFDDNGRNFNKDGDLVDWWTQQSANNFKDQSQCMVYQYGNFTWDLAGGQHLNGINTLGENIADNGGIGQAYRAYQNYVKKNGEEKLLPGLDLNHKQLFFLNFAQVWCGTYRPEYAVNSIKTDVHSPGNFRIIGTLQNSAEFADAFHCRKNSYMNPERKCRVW
Structures can show the parent of a compound that is named as a salt.
REPORTED METRIC: IC50 (nM)
Give bare numbers, in nM.

{"columns": ["COMPOUND", "REPORTED METRIC", "NUMERIC RESULT"],
 "data": [
  ["O=C(O)CCCCNC(=O)C(CS)Cc1ccccc1 (racemic)", "IC50", 22],
  ["CC(C)CC(CS)C(=O)N[C@@H](Cc1c[nH]c2ccccc12)C(=O)O (mixture of isomers)", "IC50", 6.9],
  ["O=C(O)CCCCCCNC(=O)[C@H](Cc1ccccc1)N[C@@H](Cc1ccccc1)C(=O)O", "IC50", 940],
  ["N=C(N)NCCC[C@H](NC(=O)CNC(=O)C(CS)Cc1ccccc1)C(=O)O (some centres unmarked)", "IC50", 15]
]}

Please state, for each entry, its recorded IC50.
1. CC(CS)C(=O)N[C@@H](Cc1ccc(O)c(O)c1)C(=O)O (mixture of isomers)
2. CC(C)[C@H](NC(=O)CS)C(=O)N[C@@H](Cc1c[nH]c2ccccc12)C(=O)O [lithium salt]
3. CC(C)C[C@H](NC(=O)[C@H](Cc1ccccc1)OP(=O)(O)CCc1ccccc1)C(=O)O [Example 77, dilithium salt]

## Result
1. 54
2. 680
3. 2200

## Task Fill in: IC50 of C[C@H](NC(=O)[C@@H](S)Cc1ccccc1)C(=O)N1CCC[C@H]1C(=O)O is ___
## Result 78

###

# pIC50 per entry for neutral endopeptidase (Rattus norvegicus, UniProt P07861)
Answers are plain numbers, as −log10 of the molar value.

{"columns": ["COMPOUND", "pIC50"],
 "data": [
  ["CC(C)CC(CS)C(=O)NCC(=O)N[C@@H](CCCN=C(N)N)C(=O)O (mixture of isomers) [Example 55]", 6.28],
  ["O=C(N[C@@H](Cc1ccc(O)cc1)C(=O)O)C(CS)Cc1ccccc1 (mixture of isomers) [Example 29]", 7.77],
  ["O=C(CS)N[C@@H](Cc1ccccc1)C(=O)N[C@@H](Cc1ccccc1)C(=O)O [Example 61]", 6.92]
]}

Please give pIC50 for each item listed below.
1. CC(C)CC(CS)C(=O)NCC(=O)O (racemic) [Example 8]
2. CC(CS)C(=O)N[C@@H](Cc1ccccc1)C(=O)O (mixture of isomers) [Example 17]
3. O=C(O)CCNC(=O)C(CS)Cc1ccccc1 (racemic) [Example 45]

## Result
6.55
7.85
8.05
